Source of measurements: patent US20220204498A1

# Target or test system: IRE1α (Homo sapiens, UniProt O75460, D688N)
# Construct: containing the kinase and RNase domains (KR, AA G547-1L977, D688N)
# Sequence (O75460 547-977 D688N): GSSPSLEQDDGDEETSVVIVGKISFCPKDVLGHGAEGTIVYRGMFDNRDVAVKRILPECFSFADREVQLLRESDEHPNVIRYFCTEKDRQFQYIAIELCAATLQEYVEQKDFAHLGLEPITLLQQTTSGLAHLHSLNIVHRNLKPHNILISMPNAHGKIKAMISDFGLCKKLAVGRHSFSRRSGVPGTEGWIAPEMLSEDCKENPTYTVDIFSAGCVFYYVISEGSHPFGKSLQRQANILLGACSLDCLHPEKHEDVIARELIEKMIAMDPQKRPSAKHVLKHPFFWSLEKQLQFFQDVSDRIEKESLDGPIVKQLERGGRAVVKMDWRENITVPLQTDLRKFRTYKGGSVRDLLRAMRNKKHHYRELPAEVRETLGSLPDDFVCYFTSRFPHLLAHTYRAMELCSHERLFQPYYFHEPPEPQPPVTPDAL
# Protocol description: IRE1α TR-FRET competition binding assay (IRE1α HTRF)
# Run conditions: His-tagged IRE1α kinase dead construct (KR, D688N) 0.25 nM; Alexa fluor 647-labeled ATP competitive probe 2 nM; one hour at room temperature; read-out: IRE1α (alpha) HTRF (IC50)
Structures can show the parent of a compound that is named as a salt.
Measurement label: log10 IC50 (log10 of the value in nM)
// stored as log10 of IC50 expressed in nM

// solved cases for log10 IC50 follow
Ask: Could you share which log10 IC50 value was measured for O=S(=O)(Cc1ccc(F)cc1)Nc1ccc(-c2cc(C(F)F)c3nc(N[C@@H]4CNC[C@@H](F)C4)ncc3n2)cc1F [Compound 139, hydrochloride] ?
Reply: -0.64

Ask: Form field: reported log10 IC50 of Cc1cc(-c2ccc(NS(=O)(=O)CCC(F)(F)F)nc2)nc2cnc(N[C@H]3CC[C@H](N(C)C)CC3)nc12 [Compound 125]
Reply: -0.36

Ask: So what does the record say about log10 IC50 for Cc1nc(NS(=O)(=O)c2ccccc2Cl)ccc1-c1cc(C)c2nc(N[C@@H]3CNC[C@@H](F)C3)ncc2n1 [Compound 136] ?
Reply: 1.15

Ask: For the molecule shown here, Cc1cc(-c2ccc(NS(=O)(=O)Cc3ccc(F)cc3)c(F)c2)nc2cnc(N[C@H]3CC[C@H](N(C)C)CC3)nc12 [Compound 129] , give the reported log10 IC50.
Reply: -1.10

Ask: Name the recorded log10 IC50 for CCc1cc(-c2ccc(NS(=O)(=O)Cc3ccc(S(C)(=O)=O)cc3)c(F)c2)nc2cnc(N[C@H]3CC[C@H](N(C)C)CC3)nc12 [Compound 152] .
Reply: -0.92

Ask: Which measured log10 IC50 value corresponds to Cc1cc(-c2ccc(NS(=O)(=O)Cc3ccccc3)c(F)c2)nc2cnc(N[C@@H]3CNC[C@@H](F)C3)nc12 [Compound 106] ?
Reply: -0.52

Ask: Name the reported log10 IC50 value associated with the molecule CCc1cc(-c2ccc(NS(=O)(=O)CCC(F)(F)F)c(F)c2)nc2cnc(N[C@H]3CC[C@H](N(C)C)CC3)nc12 [Compound 114]
Reply: -1.10

Ask: Quick one: log10 IC50 of CCc1cc(-c2ccc(NS(=O)(=O)c3ccccc3OC(F)F)nc2C)nc2cnc(N[C@H]3CC[C@H](N(C)C)CC3)nc12 [Compound 148] ?
Reply: -0.29

Please state log10 IC50 for every molecule in the list that follows.
1. O=S(=O)(Cc1ccccc1)Nc1ccc(-c2ccc3nc(N[C@@H]4CNC[C@@H](F)C4)ncc3n2)cc1F [Compound 100]
2. CCc1cc(-c2ccc(NS(=O)(=O)CCC(F)(F)F)c(F)c2)nc2cnc(N[C@@H]3CNC[C@@H](F)C3)nc12 [Compound 119, formate]

Reply:
-0.05
-0.41

# return log10 IC50 for each item in the list
1. Cc1cc(-c2ccc(NC(=O)CC(C)C)c(F)c2)nc2cnc(N[C@H]3CC[C@H](N(C)C)CC3)nc12 [Compound 127]
2. Cc1cc(-c2ccc(NS(=O)(=O)Cc3ccc(C#N)cc3)c(F)c2)nc2cnc(N[C@@H]3CNC[C@@H](F)C3)nc12 [Compound 116, formate]
3. Cc1cc(-c2cc(F)c(NS(=O)(=O)c3ccccc3Cl)c(F)c2F)nc2cnc(N[C@H]3CC[C@H](N(C)C)CC3)nc12 [Compound 155]

Reply:
2.15
-0.89
-0.72

----------
# Target or test system: IRE1α (Homo sapiens, UniProt O75460, D688N)
# Construct: containing the kinase and RNase domains (KR, AA G547-1L977, D688N); made in house; host or cells: Sf9 insect cells
# Protocol description: IRE1α TR-FRET competition binding assay (IRE1α HTRF)
# Run conditions: His-tagged IRE1α kinase dead construct (KR, D688N) 0.25 nM; Alexa fluor 647-labeled ATP competitive probe 2 nM; one hour at room temperature; read-out: IRE1α (alpha) HTRF (IC50)
Measurement label: IC50

Ask: Suppose we examine the compound COCc1cc(-c2ccc(NS(=O)(=O)Cc3ccc(F)cc3)c(F)c2)nc2cnc(N[C@H]3CC[C@H](N(C)C)CC3)nc12 [Compound 138] ; what IC50 value has been reported?
Reply: 210 pM

Ask: Quick check: IC50 of CCc1cc(-c2ccc(NS(=O)(=O)c3ccccc3Cl)nc2C)nc2cnc(N[C@H]3CC[C@H](N(C)C)CC3)nc12 [Compound 134] ?
Reply: 330 pM

Ask: # query: IC50 of entry CCc1cc(-c2ccc(NS(=O)(=O)c3ccccc3C(F)F)nc2C)nc2cnc(N[C@H]3CC[C@H](N(C)C)CC3)nc12 [Compound 147]
Reply: 280 pM

Further cases:
Ask: Dear colleague, I am looking for the recorded IC50 of the following compound: CCCS(=O)(=O)Nc1ccc(-c2cc(C)c3nc(N[C@@H]4CNC[C@@H](F)C4)ncc3n2)cc1F [Compound 111]
Reply: 2100 pM

----------
# Target or test system: IRE1α (Homo sapiens, UniProt O75460, D688N)
# Construct: containing the kinase and RNase domains (KR, AA G547-1L977, D688N); made in house; host or cells: Sf9 insect cells
# Protocol description: IRE1α TR-FRET competition binding assay (IRE1α HTRF)
# Run conditions: His-tagged IRE1α kinase dead construct (KR, D688N) 0.25 nM; Alexa fluor 647-labeled ATP competitive probe 2 nM; one hour at room temperature; read-out: IRE1α (alpha) HTRF (IC50)
Counter-ions that a name gives are not always drawn.
Task for the reader: assign each of the following compounds its reported IC50.
One number for each entry, in nM.

Would you please look over these solved cases?
Ask: Hi! What's the reported IC50 for Cc1cc(-c2ccc(NS(=O)(=O)CCC(C)(F)F)c(F)c2)nc2cnc(N[C@H]3CC[C@H](N(C)C)CC3)nc12 on IRE1α (Homo sapiens, UniProt O75460, D688N)?
Reply: 0.17

Ask: Provide value of IC50 for this record tested with IRE1α (Homo sapiens, UniProt O75460, D688N): CN(C)[C@H]1CC[C@H](Nc2ncc3nc(-c4ccc(NS(=O)(=O)Cc5ccc(F)cc5)c(F)c4)cc(C(F)F)c3n2)CC1
Reply: 0.15

Ask: Param readout= IC50; system= IRE1α (Homo sapiens, UniProt O75460, D688N); entry= CCc1cc(-c2ccc(NS(=O)(=O)c3ccccc3Cl)c(F)c2)nc2cnc(N[C@@H]3CNC[C@@H](F)C3)nc12 [Compound 123, formate] ; returns value.
Reply: 0.18

Ask: Param readout = IC50; param system = IRE1α (Homo sapiens, UniProt O75460, D688N); param query = O=S(=O)(Cc1ccccc1)Nc1c(F)cc(-c2cc3cnc(N[C@@H]4CNC[C@@H](F)C4)nc3nc2OC2CCOC2)c(F)c1F (single isomer, unassigned) [Compound 105] ; response: value
Reply: 0.39

Hi! Can you tell me IC50 for each of these compounds?
1. Cc1nc(NS(=O)(=O)CCC(F)(F)F)ccc1-c1cc(C)c2nc(N[C@H]3CC[C@H](N(C)C)CC3)ncc2n1
2. Cc1cc(-c2ccc(NS(=O)(=O)CCC(F)(F)F)c(Cl)c2)nc2cnc(N[C@H]3CC[C@H](N(C)C)CC3)nc12
3. COc1cc(-c2ccc(NS(=O)(=O)CCC(F)(F)F)c(F)c2)nc2cnc(N[C@H]3CC[C@H](N(C)C)CC3)nc12
4. O=S(=O)(Cc1ccccc1)Nc1ccc(-c2cc3cnc(N[C@@H]4CNC[C@@H](F)C4)nc3cn2)cc1F

Reply:
1: 18; 2: 0.25; 3: 22; 4: 3

----------
Kindly state log10(IC50) for each of the entries shown.
# Target or test system: IRE1α (Homo sapiens, UniProt O75460, D688N)
# Construct: containing the kinase and RNase domains (KR, AA G547-1L977, D688N)
# Protocol description: IRE1α TR-FRET competition binding assay (IRE1α HTRF)
# Run conditions: His-tagged IRE1α kinase dead construct (KR, D688N) 0.25 nM; Alexa fluor 647-labeled ATP competitive probe 2 nM; one hour at room temperature; read-out: IRE1α (alpha) HTRF (IC50)
Where a name gives a salt, the structure may show the parent alone.
Plainly stated, the numbers are log10 of IC50 given in nM.

Ask: Query (molecule): CCc1cc(-c2ccc(NS(=O)(=O)c3ccccc3Cl)nc2OC)nc2cnc(N[C@H]3CC[C@H](N(C)C)CC3)nc12 [Compound 141] ; field requested: log10(IC50)
Reply: -0.37

Ask: Requested read-out: log10(IC50). Entry: Cc1nc(NS(=O)(=O)Cc2ccc(F)cc2)ccc1-c1cc(C(F)F)c2nc(N[C@H]3CC[C@H](N(C)C)CC3)ncc2n1 [Compound 133]
Reply: 0.72

Ask: Find the recorded log10(IC50) belonging to O=S(=O)(Cc1ccccc1)Nc1ccc(-c2cnc3nc(N[C@@H]4CNC[C@@H](F)C4)ncc3c2)cc1F [Compound 109] and report it.
Reply: 0.76

Ask: I'd like to know its log10(IC50). The molecule in question is CN(C)[C@H]1CC[C@H](Nc2ncc3nc(-c4ccc(NS(=O)(=O)c5ccccc5Cl)c(F)c4)cc(C(F)F)c3n2)CC1 [Compound 143]
Reply: -0.70

Ask: Which log10(IC50) value belongs to CCCS(=O)(=O)Nc1ccc(-c2cc(C)c3nc(N[C@H]4CC[C@H](N(C)C)CC4)ncc3n2)cc1F [Compound 112] ?
Reply: -0.49

Ask: Can you share its log10(IC50)? I mean this molecule: Cc1cc(-c2ccc(NS(=O)(=O)c3ccccn3)c(F)c2)nc2cnc(N[C@H]3CC[C@H](N(C)C)CC3)nc12 [Compound 158]
Reply: -0.70

Ask: Requested field: log10(IC50). Item: Cc1cc(-c2cc(F)c(NS(=O)(=O)Cc3ccc(F)cc3)c(F)c2F)nc2cnc(N[C@H]3CC[C@H](N(C)C)CC3)nc12 [Compound 153]
Reply: -0.80

Ask: Could you share which log10(IC50) value was measured for CN(C)[C@H]1CC[C@H](Nc2ncc3nc(-c4ccc(NS(=O)(=O)Cc5ccc(F)cc5)c(F)c4)cc(CF)c3n2)CC1 [Compound 130] ?
Reply: -0.70

Ask: Could you tell me which log10(IC50) is on file for Cc1cc(-c2cc(F)c(NS(=O)(=O)Cc3ccc(F)cc3)cc2F)nc2cnc(N[C@H]3CC[C@H](N(C)C)CC3)nc12 [Compound 137] ?
Reply: -0.64

Ask: Can you share its log10(IC50)? I mean this molecule: Cc1cc(-c2ccc(NS(=O)(=O)Cc3ccc(F)cc3)c(F)c2)nc2cnc(N[C@@H]3CNC[C@@H](F)C3)nc12 [Compound 121, formate]
Reply: -0.57

# return log10(IC50) for each item in the list
1. CCc1cc(-c2ccc(NS(=O)(=O)Cc3ccccc3)c(F)c2)nc2cnc(N[C@@H]3CNC[C@@H](F)C3)nc12 [Compound 122, formate]
2. Cc1cc(-c2cc(F)c(NS(=O)(=O)Cc3ccccc3)c(F)c2)nc2cnc(N[C@@H]3CNC[C@@H](F)C3)nc12 [Compound 108]
3. CC(C)c1cc(-c2ccc(NS(=O)(=O)CCC(F)(F)F)c(F)c2)nc2cnc(N[C@H]3CC[C@H](N(C)C)CC3)nc12 [Compound 124]
4. Cc1cc(-c2ccc(NS(=O)(=O)c3ccccc3Cl)nc2)nc2cnc(N[C@H]3CC[C@H](N(C)C)CC3)nc12 [Compound 135]

Reply:
1: -0.70; 2: -0.70; 3: -0.80; 4: -0.49

Please give log10(IC50) for each item listed below.
1. Cc1cc(-c2ccc(NS(=O)(=O)Cc3ccc(F)cc3F)c(F)c2)nc2cnc(N[C@@H]3CNC[C@@H](F)C3)nc12 [Compound 115]
2. Cc1cc(-c2ccc(NS(=O)(=O)c3ccccc3C#N)c(F)c2)nc2cnc(N[C@H]3CC[C@H](N(C)C)CC3)nc12 [Compound 150]
3. O=S(=O)(Cc1ccccc1)Nc1c(F)cc(-c2cc3cnc(N[C@@H]4CNC[C@@H](F)C4)nc3nc2OC2CCOC2)c(F)c1F (single isomer, unassigned) [Compound 104]
4. CCc1cc(-c2ccc(NS(=O)(=O)Cc3ccc(F)cc3)nc2OC)nc2cnc(N[C@H]3CC[C@H](N(C)C)CC3)nc12 [Compound 142]
5. Cc1cc(-c2ccc(NS(=O)(=O)c3cccnc3C(F)(F)F)c(F)c2)nc2cnc(N[C@H]3CC[C@H](N(C)C)CC3)nc12 [Compound 157]

Reply:
-0.59
-0.82
-0.18
-0.85
-0.64

Ask: Data request, read-out log10(IC50), for Cc1cc(-c2ccc3c(c2)CCS(=O)(=O)N3)nc2cnc(N[C@H]3CC[C@H](N(C)C)CC3)nc12 [Compound 151]
Reply: 1.59
